- TARGET_OR_TEST_SYSTEM: Human Cav2.2 channels (Homo sapiens)
- Construct: expressed in transfected cells
- PROCEDURE_DETAILS: Fluorescent assay for Cav2.2 channels using potassium depolarization to initiate channel opening
- Format: cell-based
- DETAILS: 10 μM compound; read-out: Cav 2.2 Activity % Inh at 10 μM
OBSERVABLE: inhibition at 10 µM (%)
Lab book: enter the figure in %, no units written.

# SMILES_TEXT, TARGET_OR_TEST_SYSTEM, REPORTED_VALUE
records = [
    ("Cc1cc(CNC(=O)C2(NC(=O)c3cc(C(C)(C)C)cc(C(C)(C)C)c3)CCCCC2)no1", "Human Cav2.2 channels (Homo sapiens)", 106),
    ("CC(C)(C)c1cc(C(=O)NC2(C(=O)NCc3ccc(NS(C)(=O)=O)cc3)CC2)cc(C(C)(C)C)c1O", "Human Cav2.2 channels (Homo sapiens)", 74.2),
    ("CN1CCN(Cc2ccc(CNC(=O)C3(NC(=O)c4cc(C(C)(C)C)nc(C(C)(C)C)c4)CCOCC3)cc2)CC1", "Human Cav2.2 channels (Homo sapiens)", 102),
    ("CC(C)(C)c1cc(C(=O)NC2(C(=O)NCc3nccs3)CC2)cc(C(C)(C)C)n1", "Human Cav2.2 channels (Homo sapiens)", 95.7),
]

What inhibition at 10 µM value was documented for this compound, CC(C)(C)c1cc(C(=O)NC2(C(=O)NCc3nccs3)CCCCC2)cc(C(C)(C)C)n1 ?
98.4

What inhibition at 10 µM value was documented for this compound, CN1CCN(C(=O)C2(NC(=O)c3cc(C(C)(C)C)nc(C(C)(C)C)c3)CCCC2)CC1 ?
83.9

What inhibition at 10 µM value was documented for this compound, COc1c(C(C)(C)C)cc(C(=O)NC2(C(=O)N3CCCC3)CCCCC2)cc1C(C)(C)C ?
91.7

###

- TARGET_OR_TEST_SYSTEM: Human Cav2.2 channels (Homo sapiens, UniProt Q00975)
- Construct: expressed in transfected cells
- Sequence (Q00975 whole entry): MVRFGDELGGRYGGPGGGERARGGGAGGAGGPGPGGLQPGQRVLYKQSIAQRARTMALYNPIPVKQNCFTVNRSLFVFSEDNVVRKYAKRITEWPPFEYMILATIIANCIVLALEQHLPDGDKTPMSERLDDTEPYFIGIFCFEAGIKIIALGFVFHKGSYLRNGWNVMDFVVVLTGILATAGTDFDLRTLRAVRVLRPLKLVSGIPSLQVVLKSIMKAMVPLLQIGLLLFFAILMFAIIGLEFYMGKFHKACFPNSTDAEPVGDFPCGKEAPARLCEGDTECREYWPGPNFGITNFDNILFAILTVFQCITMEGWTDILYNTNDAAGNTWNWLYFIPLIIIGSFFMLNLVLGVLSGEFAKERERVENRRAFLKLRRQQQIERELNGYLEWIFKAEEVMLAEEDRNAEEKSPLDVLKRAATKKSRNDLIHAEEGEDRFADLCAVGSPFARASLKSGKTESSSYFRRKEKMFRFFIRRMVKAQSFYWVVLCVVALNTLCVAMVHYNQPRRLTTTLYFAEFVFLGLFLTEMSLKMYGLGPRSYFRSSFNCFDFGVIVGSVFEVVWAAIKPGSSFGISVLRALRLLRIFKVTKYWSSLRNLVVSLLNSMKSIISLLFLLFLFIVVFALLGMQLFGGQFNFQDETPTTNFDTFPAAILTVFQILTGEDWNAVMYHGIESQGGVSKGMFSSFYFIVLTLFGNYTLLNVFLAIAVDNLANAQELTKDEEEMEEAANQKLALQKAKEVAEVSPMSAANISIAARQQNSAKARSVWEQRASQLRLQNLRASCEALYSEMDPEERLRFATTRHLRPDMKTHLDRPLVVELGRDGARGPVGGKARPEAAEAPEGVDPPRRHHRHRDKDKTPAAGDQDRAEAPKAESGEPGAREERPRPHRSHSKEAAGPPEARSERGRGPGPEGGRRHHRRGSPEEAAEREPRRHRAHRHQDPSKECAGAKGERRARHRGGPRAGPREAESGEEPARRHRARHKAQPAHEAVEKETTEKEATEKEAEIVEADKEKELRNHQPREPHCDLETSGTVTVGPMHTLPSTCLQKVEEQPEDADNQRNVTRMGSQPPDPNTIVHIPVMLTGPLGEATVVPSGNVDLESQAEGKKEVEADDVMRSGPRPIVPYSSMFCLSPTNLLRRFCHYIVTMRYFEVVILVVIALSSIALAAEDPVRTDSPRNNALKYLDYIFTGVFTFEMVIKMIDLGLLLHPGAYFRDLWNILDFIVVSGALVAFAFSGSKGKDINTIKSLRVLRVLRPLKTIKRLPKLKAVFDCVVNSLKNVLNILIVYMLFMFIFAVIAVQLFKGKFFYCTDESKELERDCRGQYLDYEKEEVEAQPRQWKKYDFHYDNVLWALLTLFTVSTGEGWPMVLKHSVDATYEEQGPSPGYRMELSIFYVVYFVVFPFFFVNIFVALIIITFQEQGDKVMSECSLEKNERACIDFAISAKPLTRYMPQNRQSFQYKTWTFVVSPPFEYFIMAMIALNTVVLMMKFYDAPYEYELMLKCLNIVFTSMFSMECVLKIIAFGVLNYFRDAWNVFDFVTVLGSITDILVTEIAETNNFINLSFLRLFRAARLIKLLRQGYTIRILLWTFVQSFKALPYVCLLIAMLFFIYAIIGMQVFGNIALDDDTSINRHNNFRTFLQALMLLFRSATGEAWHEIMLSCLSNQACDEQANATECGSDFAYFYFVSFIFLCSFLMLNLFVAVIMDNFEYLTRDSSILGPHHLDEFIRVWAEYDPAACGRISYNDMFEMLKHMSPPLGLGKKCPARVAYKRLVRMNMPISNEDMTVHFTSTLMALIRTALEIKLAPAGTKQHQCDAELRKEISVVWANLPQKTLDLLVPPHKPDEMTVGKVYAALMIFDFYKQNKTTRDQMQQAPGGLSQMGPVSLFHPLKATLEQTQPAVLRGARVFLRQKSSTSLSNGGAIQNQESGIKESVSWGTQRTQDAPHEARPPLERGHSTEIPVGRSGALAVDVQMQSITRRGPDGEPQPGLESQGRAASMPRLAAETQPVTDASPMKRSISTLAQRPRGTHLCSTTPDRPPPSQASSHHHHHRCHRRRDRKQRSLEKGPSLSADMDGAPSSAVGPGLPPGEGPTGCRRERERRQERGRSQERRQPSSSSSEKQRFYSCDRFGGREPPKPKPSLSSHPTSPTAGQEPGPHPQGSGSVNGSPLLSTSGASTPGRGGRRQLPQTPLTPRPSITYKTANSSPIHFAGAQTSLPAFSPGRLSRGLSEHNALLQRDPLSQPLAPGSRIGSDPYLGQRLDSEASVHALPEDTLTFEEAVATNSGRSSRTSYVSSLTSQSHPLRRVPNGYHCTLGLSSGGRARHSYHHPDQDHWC
- Sequence (P54289 25-1103 partner): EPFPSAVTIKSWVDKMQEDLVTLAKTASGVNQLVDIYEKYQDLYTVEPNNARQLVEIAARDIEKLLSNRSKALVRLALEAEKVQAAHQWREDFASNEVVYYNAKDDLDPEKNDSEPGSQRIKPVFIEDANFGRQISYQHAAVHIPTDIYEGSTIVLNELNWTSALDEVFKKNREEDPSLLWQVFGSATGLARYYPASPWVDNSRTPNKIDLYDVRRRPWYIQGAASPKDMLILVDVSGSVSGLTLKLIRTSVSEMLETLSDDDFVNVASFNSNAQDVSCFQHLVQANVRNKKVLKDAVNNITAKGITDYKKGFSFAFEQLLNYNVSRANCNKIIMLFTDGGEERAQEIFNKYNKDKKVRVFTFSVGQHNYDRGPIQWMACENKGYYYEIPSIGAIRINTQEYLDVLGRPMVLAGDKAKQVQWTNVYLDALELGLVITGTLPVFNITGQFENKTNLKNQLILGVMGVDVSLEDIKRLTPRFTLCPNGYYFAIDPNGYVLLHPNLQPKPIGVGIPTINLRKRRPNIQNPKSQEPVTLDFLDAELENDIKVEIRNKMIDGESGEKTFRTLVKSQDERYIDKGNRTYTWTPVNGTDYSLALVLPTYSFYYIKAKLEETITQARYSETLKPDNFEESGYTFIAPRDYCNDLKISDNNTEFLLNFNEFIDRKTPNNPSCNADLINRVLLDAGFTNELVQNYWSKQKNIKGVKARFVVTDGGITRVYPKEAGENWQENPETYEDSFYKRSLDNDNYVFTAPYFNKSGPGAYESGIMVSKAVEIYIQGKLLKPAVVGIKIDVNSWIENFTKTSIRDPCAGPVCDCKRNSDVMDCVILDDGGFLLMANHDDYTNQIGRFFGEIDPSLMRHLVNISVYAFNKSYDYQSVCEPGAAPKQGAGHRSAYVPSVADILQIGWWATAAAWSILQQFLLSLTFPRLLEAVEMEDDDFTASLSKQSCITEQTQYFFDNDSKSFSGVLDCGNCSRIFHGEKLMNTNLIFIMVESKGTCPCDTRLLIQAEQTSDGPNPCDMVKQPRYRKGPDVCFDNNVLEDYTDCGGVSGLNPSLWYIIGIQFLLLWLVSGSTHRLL
- Sequence (P54284 whole entry partner): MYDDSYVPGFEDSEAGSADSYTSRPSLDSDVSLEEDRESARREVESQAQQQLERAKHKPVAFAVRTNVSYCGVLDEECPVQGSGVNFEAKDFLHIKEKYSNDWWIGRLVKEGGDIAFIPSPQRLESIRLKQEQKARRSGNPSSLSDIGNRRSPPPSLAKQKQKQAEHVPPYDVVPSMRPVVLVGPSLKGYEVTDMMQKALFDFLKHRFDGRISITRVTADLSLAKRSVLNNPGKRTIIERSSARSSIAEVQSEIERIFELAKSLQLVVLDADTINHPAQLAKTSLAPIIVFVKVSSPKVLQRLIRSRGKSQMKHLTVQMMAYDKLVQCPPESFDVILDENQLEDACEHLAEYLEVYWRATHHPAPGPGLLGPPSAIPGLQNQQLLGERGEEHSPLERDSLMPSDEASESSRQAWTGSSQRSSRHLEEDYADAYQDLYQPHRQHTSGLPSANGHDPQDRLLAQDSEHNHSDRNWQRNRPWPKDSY
- PROCEDURE_DETAILS: Fluorescent assay for Cav2.2 channels using potassium depolarization to initiate channel opening
- Type: cell-based
- DETAILS: 10 μM compound; read-out: Cav 2.2 Activity % Inh at 10 μM
OBSERVABLE: inhibition at 10 µM (%)
Lab book: enter the figure in %, no units written.

# SMILES_TEXT, UNIT_ANNOTATION, inhibition at 10 µM
measured = [
    ("Cc1cnc(CNC(=O)C2(NC(=O)c3cc(C(C)(C)C)nc(C(C)(C)C)c3)CCCC2)cn1", "%", 95.3),
    ("CC(C)(C)c1cc(C(=O)NC2(C(=O)NCc3ccc(F)cc3)CCCCC2)cc(C(C)(C)C)c1", "%", 103),
    ("CN(C)c1ccc(CNC(=O)C2(NC(=O)c3cc(C(C)(C)C)c(O)c(C(C)(C)C)c3)CCCCC2)cc1", "%", 99.3),
]

What inhibition at 10 µM value was documented for this compound, CC(C)(C)c1cc(C(=O)NC2(C(=O)NCc3ccc(F)cc3F)CCCCC2)cc(C(C)(C)C)c1 ?
99.6

What inhibition at 10 µM value was documented for this compound, COc1ccc(CNC(=O)C2(NC(=O)c3cc(C(C)(C)C)c(OC)c(C(C)(C)C)c3)CC2)cc1 ?
100

What inhibition at 10 µM value was documented for this compound, CC(C)(C)c1cc(C(=O)NC2(C(=O)NCc3ccccc3)CCCCC2)cc(C(C)(C)C)c1O ?
104

What inhibition at 10 µM value was documented for this compound, CC(C)(C)c1cc(C(=O)NC2(C(=O)NCc3ccccc3)CCCC2)cc(C(C)(C)C)c1 ?
92

What inhibition at 10 µM value was documented for this compound, COc1c(C(C)(C)C)cc(CC(=O)NC2(C(=O)NCc3ccccc3)CCCCC2)cc1C(C)(C)C ?
48.2

###

- TARGET_OR_TEST_SYSTEM: Human Cav2.2 channels (Homo sapiens, UniProt Q00975)
- PROCEDURE_DETAILS: Fluorescent assay for Cav2.2 channels using potassium depolarization to initiate channel opening
- DETAILS: 30 mM K (block of open and inactivated channels); read-out: Cav 2.2 Activity IC50 at 30 mM K
Binning rule for recorded IC50: bottom bin = under 70 nM, middle bin = from 70 nM up to 200 nM, top bin = 200 nM and over

Some solved cases for reference:
# SMILES_TEXT, ASSIGNED_LABEL
measured = [
    ("Cc1cnc(CNC(=O)C2(NC(=O)c3cc(C(C)(C)C)nc(C(C)(C)C)c3)CCCC2)cn1", "middle bin"),
    ("CN(C)c1cccc(CNC(=O)C2(NC(=O)c3cc(C(C)(C)C)nc(C(C)(C)C)c3)CCOCC2)c1", "middle bin"),
    ("CC(C)(C)c1cc(C(=O)NC2(C(=O)Nc3ccccn3)CC2)cc(C(C)(C)C)c1O", "top bin"),
    ("COc1c(C(C)(C)C)cc(C(=O)NC2(C(=O)N3CCOCC3)CCCCC2)cc1C(C)(C)C", "bottom bin"),
    ("CC(C)(C)c1cc(C(=O)NC2(C(=O)NCc3ccccc3)CCCCC2)cc(C(C)(C)C#N)c1", "bottom bin"),
    ("CC(C)(C)c1cc(C(=O)NC2(C(=O)NCc3ccc(S(C)(=O)=O)cc3)CCCCC2)cc(C(C)(C)C)n1", "top bin"),
    ("CC(C)(C)c1cc(C(=O)NC2(C(=O)NCc3ccc(CN4CCOCC4)cc3)CCOCC2)cc(C(C)(C)C)n1", "top bin"),
    ("COc1c(C(C)(C)C)cc(CNC(=O)C2(NC(=O)c3cccc(C(F)(F)F)c3)CCCCC2)cc1C(C)(C)C", "middle bin"),
    ("CC(C)(C)c1cc(C(=O)NC2(C(=O)N3CCOCC3)CCCCC2)cc(C(C)(C)C)n1", "top bin"),
    ("COc1ccc(CNC(=O)C2(NC(=O)c3cc(C(C)(C)C)nc(C(C)(C)C)c3)CCCC2)cc1", "bottom bin"),
]

Into which bin does this molecule go? CC(C)(C)c1cc(C(=O)NC2(C(=O)NCc3ccc(Cl)cc3)CCCCC2)cc(C(C)(C)C)c1
middle bin

Into which bin does this molecule go? CNC(=O)C1(NC(=O)c2cc(C(C)(C)C)nc(C(C)(C)C)c2)CCCCC1
middle bin

Into which bin does this molecule go? COc1c(C(C)(C)C)cc(C(=O)NC2(C(=O)NCCCN3CCOCC3)CCCCC2)cc1C(C)(C)C
top bin

###

- TARGET_OR_TEST_SYSTEM: Human Cav2.2 channels (Homo sapiens, UniProt Q00975)
- PROCEDURE_DETAILS: Fluorescent assay for Cav2.2 channels using potassium depolarization to initiate channel opening
- DETAILS: 30 mM K (block of open and inactivated channels); read-out: Cav 2.2 Activity IC50 at 30 mM K
- Protocol: Human Cav2.2 channels were stably expressed in HEK293 cells along with alpha2-delta and beta subunits of voltage-gated calcium channels. […] Calcium influx through Cav2.2 channels is determined using a calcium sensitive fluorescent dye in combination with a fluorescent plate reader. Fluorescent changes were measured with either a VIPR (Aurora Instruments) or FLIPR (Molecular Devices) plate reader. • 1. […] Read cell plate on VIPR instrument, Excitation=480 nm, Emission=535 nm • 9. […]
OBSERVABLE: IC50 (nM)
Lab book: enter the figure in nM, no units written.

# COMPOUND, TARGET_OR_TEST_SYSTEM, IC50 [nM]
records = [
    ("COc1ccc(C(=O)NC2(C(=O)NCc3cc(C(C)(C)C)c(OC)c(C(C)(C)C)c3)CCCCC2)cc1 [Compound 74]", "Human Cav2.2 channels (Homo sapiens, UniProt Q00975)", 55.8),
]

What IC50 value was documented for this compound, CC(C)(C)c1cc(C(=O)NC2(C(=O)NCc3ccc(F)cc3)CCCCC2)cc(C(C)(C)C)c1 [Compound 49] ?
44.2

What IC50 value was documented for this compound, Cc1cc(CNC(=O)C2(NC(=O)c3cc(C(C)(C)C)c(O)c(C(C)(C)C)c3)CC2)nn1C [Compound 2] ?
1410

What IC50 value was documented for this compound, COc1c(C(C)(C)C)cc(C(=O)NC2(C(=O)NCc3cc(C)n(C)n3)CCCCC2)cc1C(C)(C)C [Compound 85] ?
26.7

What IC50 value was documented for this compound, COc1ccc(CNC(=O)C2(NC(=O)c3cc(C(C)(C)C)c(O)c(C(C)(C)C)c3)CC2)cc1 [Compound 109] ?
87.7

What IC50 value was documented for this compound, Cc1cc(CNC(=O)C2(NC(=O)c3cc(C(C)(C)C)nc(C(C)(C)C)c3)CCCCC2)no1 [Compound 79] ?
43.3

What IC50 value was documented for this compound, COc1c(C(C)(C)C)cc(C(=O)NC2(C(=O)NCc3cc(C)on3)CCCCC2)cc1C(C)(C)C [Compound 86] ?
9.57

What IC50 value was documented for this compound, COc1c(C(C)(C)C)cc(C(=O)NC2(C(=O)NCc3cnc(C)cn3)CCN(C(=O)OC(C)(C)C)CC2)cc1C(C)(C)C [Compound 22] ?
402

What IC50 value was documented for this compound, CC(C)(C)c1cc(C(=O)NC2(C(=O)NCc3ccccc3)CCCC2)cc(C(C)(C)C)n1 [Compound 95] ?
132

What IC50 value was documented for this compound, CN(C)c1ccc(CNC(=O)C2(NC(=O)c3cc(C(C)(C)C)cc(C(C)(C)C)c3)CCCCC2)cc1 [Compound 48] ?
371

What IC50 value was documented for this compound, Cc1cnc(CNC(=O)C2(NC(=O)c3cc(C(C)(C)C)nc(C(C)(C)C)c3)CC2)cn1 [Compound 11] ?
336

What IC50 value was documented for this compound, COc1ccc(CNC(=O)C2(NC(=O)c3cc(C(C)(C)C)c(OC)c(C(C)(C)C)c3)CC2)cc1 [Compound 110] ?
121

What IC50 value was documented for this compound, CC(C)(C)c1cc(C(=O)NC2(C(=O)NCc3ccccc3)Cc3ccccc3C2)cc(C(C)(C)C)n1 [Compound 52] ?
893

What IC50 value was documented for this compound, CC(C)(C)c1cc(C(=O)NC2(C(=O)Nc3ccccn3)CC2)cc(C(C)(C)C)n1 [Compound 20] ?
102

What IC50 value was documented for this compound, COc1c(C(C)(C)C)cc(C(=O)NC2(C(=O)N3CCN(C)CC3)CCCCC2)cc1C(C)(C)C [Compound 104] ?
1020

What IC50 value was documented for this compound, COc1ccc(CNC(=O)C2(NC(=O)c3cc(C(C)(C)C)cc(C(C)(C)C)c3)CCCCC2)cc1 [Compound 45] ?
25.2

What IC50 value was documented for this compound, COc1ccc(CNC(=O)C2(NC(=O)c3cc(C(C)(C)C)nc(C(C)(C)C)c3)CCOCC2)cc1 [Compound 113] ?
59.4

What IC50 value was documented for this compound, CC(C)(C)c1cc(C(=O)NC2(C(=O)N3CCCC3)CCCCC2)cc(C(C)(C)C)n1 [Compound 66] ?
960
